- assay_protocol: Plasma stability
- Type: in vitro ADME, mouse
- particulars: S1 Data
Item-by-item account of Plasma Stability
// units = %; emit number, no label

compound_string | reported_metric | recorded_value
N#Cc1ccc2nc(NC(=O)c3ccc(C(F)(F)F)nc3)n(CC(F)(F)F)c2c1 | Plasma Stability | 135
Cn1nccc1C(=O)Nc1nc2ccc(C#N)cc2n1CC(F)(F)F | Plasma Stability | 107

Task: State its Plasma Stability for this compound: Cn1nccc1C(=O)Nc1nc2ccc(C#N)cc2n1CC(C)(C)C
Output: 99.80

Task: State its Plasma Stability for this compound: COc1ccc(C(=O)Nc2nc3ccc(C#N)cc3n2CC(F)(F)F)cn1
Output: 92.20

Task: State its Plasma Stability for this compound: N#Cc1ccc2nc(NC(=O)c3ccnc(C(F)(F)F)c3)n(CC(F)(F)F)c2c1
Output: 110.80

Task: State its Plasma Stability for this compound: Cn1nc(C(F)(F)F)cc1C(=O)Nc1nc2ccc(C#N)cc2n1CC(F)(F)F
Output: 111

---

- tested_on: B2 (Homo sapiens)
- Sequence (P30411 whole entry): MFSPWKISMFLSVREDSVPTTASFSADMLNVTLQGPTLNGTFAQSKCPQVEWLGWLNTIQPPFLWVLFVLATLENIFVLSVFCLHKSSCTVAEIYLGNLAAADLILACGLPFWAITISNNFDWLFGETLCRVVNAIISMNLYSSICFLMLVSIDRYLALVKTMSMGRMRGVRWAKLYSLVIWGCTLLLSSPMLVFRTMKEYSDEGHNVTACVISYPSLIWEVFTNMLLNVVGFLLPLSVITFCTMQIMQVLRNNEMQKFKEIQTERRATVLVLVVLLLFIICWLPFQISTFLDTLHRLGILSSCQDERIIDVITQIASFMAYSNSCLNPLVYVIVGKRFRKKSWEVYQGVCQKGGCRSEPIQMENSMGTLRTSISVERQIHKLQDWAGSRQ
- assay_protocol: Bioprofiling 6pt Ag B2 CHO
- particulars: agonist readout
reported_metric: EC50

Recorded EC50, per entry:
compound_string | reported_metric | recorded_value
Cn1nccc1C(=O)Nc1nc2ccc(C#N)cc2n1CC(F)(F)F | EC50 | > 10 µM
N#Cc1ccc2nc(NC(=O)c3ccc(C(F)(F)F)nc3)n(CC(F)(F)F)c2c1 | EC50 | > 10 µM
Cn1nccc1C(=O)Nc1nc2ccc(C#N)cc2n1CC(C)(C)C | EC50 | > 10 µM

Task: State its EC50 for this molecule: COc1ccc(C(=O)Nc2nc3ccc(C#N)cc3n2CC(F)(F)F)cn1
Output: > 10 µM

Task: State its EC50 for this molecule: Cn1nc(C(F)(F)F)cc1C(=O)Nc1nc2ccc(C#N)cc2n1CC(F)(F)F
Output: > 10 µM

Task: State its EC50 for this molecule: N#Cc1ccc2nc(NC(=O)c3ccnc(C(F)(F)F)c3)n(CC(F)(F)F)c2c1
Output: > 10 µM

---

Item-by-item account of half-life
- assay_protocol: Mouse single-dose pharmacokinetics
- Type: in vivo
- particulars: female, BALB/c, plasma, single oral dose 50 mg/kg
// units = h; emit number, no label

compound | half-life [h]
Cn1nccc1C(=O)Nc1nc2ccc(C#N)cc2n1CC(F)(F)F [Compound 30] | 6.8

Lab note: next compound to report on.
Task: State its half-life for this compound: Cn1nc(C(F)(F)F)cc1C(=O)Nc1nc2ccc(C#N)cc2n1CC(F)(F)F [Compound 39]
Output: 8

---

- tested_on: 5-HT2A (Homo sapiens)
- Sequence (P28223 whole entry): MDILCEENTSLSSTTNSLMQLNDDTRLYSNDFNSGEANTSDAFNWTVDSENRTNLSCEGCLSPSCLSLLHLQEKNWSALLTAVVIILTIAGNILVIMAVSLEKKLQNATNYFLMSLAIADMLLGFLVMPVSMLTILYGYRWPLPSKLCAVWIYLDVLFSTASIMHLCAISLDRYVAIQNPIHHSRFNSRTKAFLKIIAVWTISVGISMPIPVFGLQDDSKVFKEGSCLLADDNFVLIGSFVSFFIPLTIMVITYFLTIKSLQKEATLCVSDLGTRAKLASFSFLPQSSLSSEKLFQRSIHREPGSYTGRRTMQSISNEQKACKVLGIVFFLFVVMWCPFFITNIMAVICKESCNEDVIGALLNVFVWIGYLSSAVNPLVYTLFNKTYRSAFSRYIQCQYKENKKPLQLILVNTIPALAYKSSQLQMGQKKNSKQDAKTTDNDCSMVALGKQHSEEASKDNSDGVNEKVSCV
- assay_protocol: Bioprofiling 6pt Ag 5-HT2A CHO
- particulars: agonist readout
pEC50: −log10 of the molar value.
Item-by-item account of pEC50

Recorded pEC50, per entry:
compound_string | pEC50
N#Cc1ccc2nc(NC(=O)c3ccc(C(F)(F)F)nc3)n(CC(F)(F)F)c2c1 | < 5.00
COc1ccc(C(=O)Nc2nc3ccc(C#N)cc3n2CC(F)(F)F)cn1 | < 5.00
Cn1nccc1C(=O)Nc1nc2ccc(C#N)cc2n1CC(F)(F)F | < 5.00
Cn1nc(C(F)(F)F)cc1C(=O)Nc1nc2ccc(C#N)cc2n1CC(F)(F)F | < 5.00
N#Cc1ccc2nc(NC(=O)c3ccnc(C(F)(F)F)c3)n(CC(F)(F)F)c2c1 | < 5.00

Lab note: next compound to report on.
Task: State its pEC50 for this compound: Cn1nccc1C(=O)Nc1nc2ccc(C#N)cc2n1CC(C)(C)C
Output: < 5.00

---

Item-by-item account of CC50
- assay_protocol: HEPG2 cytotoxicity
- Type: cell-based
- particulars: human, HepG2 cells; S1 Data
// units = µM; emit number, no label

Task: State its CC50 for this molecule: Cn1nccc1C(=O)Nc1nc2ccc(C#N)cc2n1CC(C)(C)C
Output: 9.08

Task: State its CC50 for this molecule: Cn1nccc1C(=O)Nc1nc2ccc(C#N)cc2n1CC(F)(F)F
Output: 5.46

Task: State its CC50 for this molecule: N#Cc1ccc2nc(NC(=O)c3ccnc(C(F)(F)F)c3)n(CC(F)(F)F)c2c1
Output: 2.38

Task: State its CC50 for this molecule: N#Cc1ccc2nc(NC(=O)c3ccc(C(F)(F)F)nc3)n(CC(F)(F)F)c2c1
Output: 1.12

---

- assay_protocol: Parallel artificial membrane permeability assay (PAMPA)
- Type: in vitro ADME
- particulars: PAMPA, S1 Data; read-out: PAMPA Pe
Decision: Papp at 5 h, 10 μM beneath 100 nm/s gives t; Papp at 5 h, 10 μM meeting or exceeding 100 nm/s gives f.

compound_string | label
Cn1nccc1C(=O)Nc1nc2ccc(C#N)cc2n1CC(C)(C)O | t
COc1ccc(C(=O)Nc2nc3ccc(C#N)cc3n2CC(F)(F)F)cn1 | f
O=C(Cc1ccc(F)cc1)Nc1nc2ccc(F)cc2n1CC1CC1 | f
CCCn1c(NC(=O)Cc2ccc(F)cc2)nc2cc(F)c(F)cc21 | f
N#Cc1ccc2nc(NC(=O)Cc3ccc(F)cc3F)n(CC(F)(F)F)c2c1 | t

Task: Check if Papp at 5 h, 10 μM falls below 100 nm/s for Cc1ccc(C(=O)Nc2nc3ccc(C#N)cc3n2CC(F)(F)F)cn1 .
Output: f

Task: Check if Papp at 5 h, 10 μM falls below 100 nm/s for Cn1nccc1C(=O)Nc1nc2ccc(C#N)cc2n1CC(F)F .
Output: f

Task: Check if Papp at 5 h, 10 μM falls below 100 nm/s for Cn1nccc1C(=O)Nc1nc2ccc(C#N)cc2n1CCF .
Output: f

---

- assay_protocol: Mouse single-dose pharmacokinetics
- Format: in vivo
- particulars: female, BALB/c, plasma, single 50 mg/kg oral dose, read-out: total Cmax
reported_metric: Cmax

Task: State its Cmax for this molecule: Cn1nc(C(F)(F)F)cc1C(=O)Nc1nc2ccc(C#N)cc2n1CC(F)(F)F [Compound 39]
Output: ~17 µM

---

- assay_protocol: Mouse single-dose pharmacokinetics
- Type: in vivo
- particulars: female, BALB/c, plasma, single oral dose 10 mg/kg
reported_metric: AUC(0-t) (ng·h/mL)
// units = ng·h/mL; emit number, no label

Task: State its AUC(0-t) for this molecule: Cn1nccc1C(=O)Nc1nc2ccc(C#N)cc2n1CC(C)(C)C
Output: 8160

---

- assay_protocol: Mouse single-dose pharmacokinetics
- Type: in vivo
- particulars: female, BALB/c, plasma, single oral dose 10 mg/kg
reported_metric: bioavailability (%)
// units = %; emit number, no label

Task: State its bioavailability for this compound: Cn1nccc1C(=O)Nc1nc2ccc(C#N)cc2n1CC(C)(C)C
Output: 72

---

- assay_protocol: Mouse liver microsomal stability
- Assay type: in vitro ADME
- particulars: CD1, mouse, liver microsomes, pH 7.4, S1 Data; read-out: MLM CLint
- Description: The metabolic stability of the compounds was evaluated in human (pool of 200 donors, XenoTech) and mouse liver microsomes (CD1 mouse, GIBCO). […] Compounds were quantified by liquid chromatography triple quadrupole mass spectrometry (LC-MS/MS). […] Half-life (t1/2 = ln(2)/k) in minutes and intrinsic clearance (Clint = k x 1000/(0.25)) in μL/min/mg were calculated using a non-linear regression from % remaining versus incubation time. From this plot, the slope (k) was determined. […]
Item-by-item account of microsomal CLint at 0.5 μM
// units = µL/min/mg; emit number, no label

Recorded microsomal CLint at 0.5 μM, per entry:
compound | unit_label | microsomal CLint at 0.5 μM
Cn1nccc1C(=O)Nc1nc2ccc(C#N)cc2n1C1CC1 [Compound 31, O=C(c1ccnn1C)Nc2nc(ccc(C#N)c3)c3n2C4CC4] | µL/min/mg | 162
CCn1c(NC(=O)Cc2ccc(F)cc2)nc2ccc(F)cc21 [Compound 16, Fc1cc2c(nc(NC(=O)Cc3ccc(F)cc3)n2CC)cc1] | µL/min/mg | 538

Lab note: next compound to report on.
Task: State its microsomal CLint at 0.5 μM for this compound: CC(C)(C)Cn1c(NC(=O)c2ccccn2)nc2ccc(C#N)cc21 [Compound 40]
Output: 1030

---

- assay_protocol: Experimental distribution coefficient (eLogD)
- Type: physicochemical
- particulars: reverse stationary phase HPLC column (Ascentis RP-Amide), pH 7.4; S1 Data
reported_metric: chromatographic logD
Form: value (number only, do not type unit).

Recorded chromatographic logD, per entry:
compound_string | recorded_value
CCCn1c(NC(=O)Cc2ccc(Cl)cc2)nc2cc(C(F)(F)F)ccc21 | 4.69
CCCn1c(NC(=O)Cc2ccc(F)cc2)nc2cc(F)c(F)cc21 | 4.04
Cn1ccc(C(=O)Nc2nc3ccc(C#N)cc3n2CC(F)(F)F)n1 | 4.15
CC(C)(C)n1c(NC(=O)Cc2ccc(F)cc2)nc2cc(F)ccc21 | 4.04
N#Cc1ccc2nc(NC(=O)c3ccc(C(F)(F)F)nc3)n(CC(F)(F)F)c2c1 | 3.1
CCCn1c(NC(=O)Cc2ccc(Cl)cc2)nc2cc(F)ccc21 | 4.26

Task: State its chromatographic logD for this molecule: O=C(Cc1ccc(F)cc1)Nc1nc2cc(F)ccc2n1C1CCOCC1
Output: 3.32

Task: State its chromatographic logD for this molecule: CCCn1c(NC(=O)Cc2ccc(F)cc2)nc2c(F)cccc21
Output: 3.57
